Data credit: patent US20240209076A1

Molecular target: T1, recombinant human IL-6 (human, UniProt P05231 30-212)
T1 construct: Bought protein
T1 sequence (P05231 30-212 limits assumed): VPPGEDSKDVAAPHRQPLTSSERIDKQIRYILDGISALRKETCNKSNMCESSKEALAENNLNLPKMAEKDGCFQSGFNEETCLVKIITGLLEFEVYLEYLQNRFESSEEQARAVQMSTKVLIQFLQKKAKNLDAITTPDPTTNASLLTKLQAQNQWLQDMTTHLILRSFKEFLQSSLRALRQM
Experiment: SPR Biacore, purified Ab on Protein A chip, IL-6 analyte, 37 C
The reader will find reported koff values listed item by item below.
Use s⁻¹ as the unit, but write only the number.

binder	reading.unit	reported.value
anti-IL-6 antibody, light chain M32V (heavy chain WT) (antibody, V domains shown, See note of m2; also called WT / M32V) VH: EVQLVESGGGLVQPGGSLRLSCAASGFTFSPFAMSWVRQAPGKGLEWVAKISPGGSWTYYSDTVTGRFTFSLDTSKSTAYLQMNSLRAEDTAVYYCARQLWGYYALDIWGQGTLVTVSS VL: DIQLTQSPSSLSASVGDRVTITCSASISVSYVYWYQQKPGKAPKLLIYDMSNLASGVPSRFSGSGSGTDFTLTISSLQPEDFATYYCMQWSGYPYTFGQGTKVEIK	s⁻¹	0.000369
anti-IL-6 antibody, heavy chain variant I (M34I, G66D, I108V) / light chain variant V (M32L, M50D, M88Q) (antibody, V domains shown, See note of m39; also called M34I, G66D, I108V/ M32L, M50D, M88Q; I/V) VH: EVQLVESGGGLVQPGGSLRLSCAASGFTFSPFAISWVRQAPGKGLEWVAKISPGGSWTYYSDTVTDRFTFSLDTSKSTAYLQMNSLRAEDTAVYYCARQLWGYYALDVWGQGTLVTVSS VL: DIQLTQSPSSLSASVGDRVTITCSASISVSYLYWYQQKPGKAPKLLIYDDSNLASGVPSRFSGSGSGTDFTLTISSLQPEDFATYYCQQWSGYPYTFGQGTKVEIK	s⁻¹	0.00073

Could you now look at the following binder, please?
[in] For the binder anti-IL-6 antibody, heavy chain variant II (M34W, G66D, I108V) / light chain variant IV (M32L, M50A, N52S, M88Q) (antibody, V domains shown, See note of m39; also called M34W, G66D, I108V/ M32L, M50A, N52S, M88Q; II/IV) VH: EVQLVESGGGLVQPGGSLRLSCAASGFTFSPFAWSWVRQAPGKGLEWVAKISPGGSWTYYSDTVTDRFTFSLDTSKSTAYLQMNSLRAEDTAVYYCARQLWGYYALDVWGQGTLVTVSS VL: DIQLTQSPSSLSASVGDRVTITCSASISVSYLYWYQQKPGKAPKLLIYDASSLASGVPSRFSGSGSGTDFTLTISSLQPEDFATYYCQQWSGYPYTFGQGTKVEIK , what koff is on record?
[out] 0.000652
